- Test system: MCF-7 human breast cancer cell line
- MEASUREMENT PROTOCOL: MTT cytotoxicity assay
- ASSAY SETUP: read-out: Cytotoxicity IC50, MCF-7; MTT method, 72 h (Table 5); NA = no activity
TEST READOUT: IC50 (µM)
Answers are plain numbers, in µM.

COc1cc(-c2ccccn2)nc([C@@H]2NC(=O)c3ccccc3N2)c1SC [S(+)-14, S-Pyrisulfoxin F]    10.4

# ---- query compound ----
Look up and state reported IC50 for COc1cccc2c1C(=O)c1c(O)c3c(c(O)c1C2=O)C[C@@](O)(C(=O)CO)C[C@@H]3O[C@H]1C[C@H](N)[C@H](O)[C@H](C)O1 [Adriamycin, reference compound]
0.86
